- tgt: human Claudin18.2 (human)
- test.details: cell-based or functional assay
endpoint: CDC EC50 (mg/L)
Give a bare numeral; the unit mg/L is implied.

425C6D3 (antibody, V domains shown) VH: DVQLVESGGGLVQPGGSRKLSCAASGFTFSGFGMHWIRQTPEKGLEWVAYISSGSRPIYYADTVQGRFTISRDNPKNTLFLQMTSLRSEDTAMYFCARFYYGNSFDHWGQGTLVTVSS VL: DIVMTQSPSFLTVTAGEKVTMSCKSSQSLLNSGNQKNYLTWYQQKPGQPPKLLIYWASTRESGVPDRFTGSGSGTDFTLTISSVQAEDLALYYCQNAYSFPLTFGAGTKLELK : 2.08
417A6F11 (antibody, V domains shown) VH: EVQLQQSGPELVKPGASMKISCKASGYSFTGYTMNWVKQSHGKNLEWIGLINPYNGGTSYNQKFKGKATLTVDKSSSTAYMELLSLTSEDSAVYYCARGDYWGQGTTLTVSS VL: DIVMTQSPSSLTVTAGEKVTMSCKSSQSLLNSGNQKNYLTWYQQKPGQPPKLLIYWASTRESGVPDRFTGSGSGTDFTLTISSVQAEDLAVYYCQNDYSYPTFGAGTKLELK : 0.392

With those in mind, consider the next binder.
So for 429H6C5 (antibody, V domains shown) VH: DVQLVESGGGLVQPGGSRKLSCAASGFTFSSFGMHWVRQAPEKELEWVAYISSGSSTIYYAHTVKGRFTISRDNPKNTLFLRMTSLGSEDTAMYYCVRFYYGNSFVNWGQGTLVTVSA VL: DIVMTQSPSSLTATAGEKVTMSCKSSQSLLNSGNQKNYLTWYQQKPGQPPKMLIYWASTRESGVPDRFAGSGSGTDFTLTISSVQAEDLAVYYCQNAYIYPLTFGAGTRLELK , the logged CDC EC50 turned out to be 0.607
